These measurements were taken from ChEMBL document CHEMBL5352428.

target: UDP-N-acetylglucosamine 1-carboxyvinyltransferase (Escherichia coli K-12, UniProt P0A749); assay: Inhibition of recombinant Escherichia coli MurA expressed in Escherichia coli NiCo21 using UNAG and PEP as substrate preincubated for 15 mins in presence of UNAG followed by PEP substrate addition and measured after 15 mins by malachite green based colorimetric assay
Sequence (P0A749 whole entry): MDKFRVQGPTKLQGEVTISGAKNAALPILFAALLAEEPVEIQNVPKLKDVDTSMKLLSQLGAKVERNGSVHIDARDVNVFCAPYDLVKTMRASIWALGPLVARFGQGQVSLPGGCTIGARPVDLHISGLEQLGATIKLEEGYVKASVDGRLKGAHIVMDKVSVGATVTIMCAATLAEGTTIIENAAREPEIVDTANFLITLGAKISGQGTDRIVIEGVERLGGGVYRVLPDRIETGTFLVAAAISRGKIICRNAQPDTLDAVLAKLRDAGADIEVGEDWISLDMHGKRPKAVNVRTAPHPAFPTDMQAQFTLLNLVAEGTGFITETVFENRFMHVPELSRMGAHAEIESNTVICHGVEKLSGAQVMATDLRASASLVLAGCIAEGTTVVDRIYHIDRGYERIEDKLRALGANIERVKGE
QUANTITY: IC50 (µM)
Give the quantity in µM, number only.

For O=C(CCl)NC1CCCC2CCCCC21 (stereo unspecified) the molecule record lists IC50 as 400

* * *

experiment: Thiol reactivity of compound at pH 7.4 buffer at 100 uM and measured for 4 hrs every 5 mins in presence of DTNB and TCEP by microplate reader analysis; format: physicochemical; settings: pH 7.4, 4 h
QUANTITY: Drug metabolism

{"COMPOUND STRING": "O=C(CCl)N1CCOCC1", "OBSERVED VALUE": "Metabolite_Detected"}
{"COMPOUND STRING": "O=C(CCl)Nc1cccc2ccccc12", "OBSERVED VALUE": "Metabolite_Detected"}
